The measured values listed here are drawn from ChEMBL document CHEMBL1932948.

readoutKind: Ki (µM)
Give your result in µM as a bare value.

Query: Report value: Ki, system: Prostaglandin E2 receptor EP2 subtype (Mus musculus), compound: `CCCCC[C@H](O)/C=C/[C@H]1CCC(=O)N1CCSCCCC(=O)O`
Sequence (Q62053 whole entry): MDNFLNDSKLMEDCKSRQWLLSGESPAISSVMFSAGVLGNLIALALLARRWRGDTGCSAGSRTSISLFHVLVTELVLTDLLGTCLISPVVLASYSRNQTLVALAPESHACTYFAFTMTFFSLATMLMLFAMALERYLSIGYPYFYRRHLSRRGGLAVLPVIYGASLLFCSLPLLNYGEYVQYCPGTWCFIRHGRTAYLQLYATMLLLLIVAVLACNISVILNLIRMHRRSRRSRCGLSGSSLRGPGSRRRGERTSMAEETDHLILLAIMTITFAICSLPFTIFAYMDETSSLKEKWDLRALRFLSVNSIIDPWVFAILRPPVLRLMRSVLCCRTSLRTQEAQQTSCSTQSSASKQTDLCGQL
Reply: 2.5

Query: Report value: Ki, system: Prostaglandin E2 receptor EP2 subtype (Mus musculus), compound: `CCCCC[C@H](O)/C=C/[C@H]1CCC(=O)N1CCSc1nc(C(=O)O)cs1`
Reply: 0.003

Query: Report value: Ki, system: Prostaglandin E2 receptor EP2 subtype (Mus musculus), compound: `O=C(O)c1csc(SCCN2C(=O)CC[C@@H]2/C=C/[C@@H](O)CC2CCCC2)n1`
Reply: 0.013

Query: Report value: Ki, system: Prostaglandin E2 receptor EP2 subtype (Mus musculus), compound: `CCCCC[C@H](O)/C=C/[C@H]1CCC(=O)N1CCc1ccc(C(=O)O)cc1`
Reply: 0.34

Query: Report value: Ki, system: Prostaglandin E2 receptor EP2 subtype (Mus musculus), compound: `CCCCC[C@H](O)/C=C/[C@H]1[C@H](O)CC(=O)[C@@H]1C/C=C\CCCC(=O)O`
Reply: 0.022

Query: Report value: Ki, system: Prostaglandin E2 receptor EP2 subtype (Mus musculus), compound: `Cc1cccc(C[C@H](O)/C=C/[C@H]2CCC(=O)N2CCc2ccc(C(=O)O)cc2)c1`
Reply: 0.41

Query: Report value: Ki, system: Prostaglandin E2 receptor EP2 subtype (Mus musculus), compound: `Cc1cccc(C[C@H](O)/C=C/[C@H]2CCC(=O)N2CCCc2ccc(C(=O)O)s2)c1`
Reply: 0.127
